- experimental_details: Brain penetration after subcutaneous injection in mice
- Type: in vivo
- assay_setup: mouse, brain and plasma, sc, 10 mg/kg, read-out: brain/plasma (B/P)
reported_property: Kp

Looking for the measured Kp of CC(N)C(=O)OC(C)(C)Cc1ccc(Cl)cc1 (stereo not shown) , can you help? ~10

====

- System: SirT1
- experimental_details: Primary AlphaLISA screening assay: SirT1 levels in N2a cells stably transfected with ApoE4
- Type: cell-based, mouse
- assay_setup: primary screening assay, ApoE4 cells

{"compound": "CC(C)(Cc1ccc(Cl)cc1)OC(=O)C(N)CCCCN (centres unmarked)", "Primary Assay (SrT1 increase)": "II (activity II 10-30%)"}
{"compound": "CC(C)(Cc1ccc(Cl)cc1)OC(=O)C(N)CO (centres unmarked)", "Primary Assay (SrT1 increase)": "II (activity II 10-30%)"}

====

- System: SirT1
- experimental_details: Primary AlphaLISA screening assay: SirT1 levels in N2a cells stably transfected with ApoE4
- Format: cell-based, mouse
- assay_setup: primary screening assay, ApoE4 cells
- Procedure: We have developed a primary screening assay that is HTS formatable; the assay would be done on N2a cells (mouse neuroblastoma cells) that have been stably transfected with ApoE3 and ApoE4. The cells are treated with drugs and the SirT1 levels are measured using the AlphaLISA assay that we have developed, e.g., as shown in FIG. 11. The illustrated AlphaLISA uses an antibody (Ab, E104, Abcam) that binds the C-terminus of SirT1 and is on the acceptor bead. […]
reported_property: Primary Assay (SrT1 increase)

Here is how some molecules turned out for Primary Assay (SrT1 increase).
{"molecule": "CC(C)CC(N)C(=O)OC(C)(C)Cc1ccc(Cl)cc1 (stereo not shown)", "Primary Assay (SrT1 increase)": "I (activity I < 10%)"}
{"molecule": "CC(C)(Cc1ccc(F)c(F)c1)NC(=O)C1CCCN1 (stereo not shown)", "Primary Assay (SrT1 increase)": "II (activity II 10-30%)"}
{"molecule": "Cc1ccc(CC(C)(C)OC(=O)C(C)N)cc1 (stereo not shown)", "Primary Assay (SrT1 increase)": "II (activity II 10-30%)"}
{"molecule": "C[C@H](N)CC(=O)OC(C)(C)Cc1ccc(Cl)cc1", "Primary Assay (SrT1 increase)": "I (activity I < 10%)"}
{"molecule": "CNC(C)C(=O)OC(C)(C)Cc1ccc(Cl)cc1 (stereo not shown)", "Primary Assay (SrT1 increase)": "I (activity I < 10%)"}

Looking for the measured Primary Assay (SrT1 increase) of CC(N)C(=O)OC(C)(C)Cc1ccccc1 (stereo not shown) , can you help? II (activity II 10-30%)

The measured values listed here are drawn from patent US20170226059A1.
